# measured target: GSK3B (human) (UniProt P49841)
# Sequence (P49841 whole entry, looked up): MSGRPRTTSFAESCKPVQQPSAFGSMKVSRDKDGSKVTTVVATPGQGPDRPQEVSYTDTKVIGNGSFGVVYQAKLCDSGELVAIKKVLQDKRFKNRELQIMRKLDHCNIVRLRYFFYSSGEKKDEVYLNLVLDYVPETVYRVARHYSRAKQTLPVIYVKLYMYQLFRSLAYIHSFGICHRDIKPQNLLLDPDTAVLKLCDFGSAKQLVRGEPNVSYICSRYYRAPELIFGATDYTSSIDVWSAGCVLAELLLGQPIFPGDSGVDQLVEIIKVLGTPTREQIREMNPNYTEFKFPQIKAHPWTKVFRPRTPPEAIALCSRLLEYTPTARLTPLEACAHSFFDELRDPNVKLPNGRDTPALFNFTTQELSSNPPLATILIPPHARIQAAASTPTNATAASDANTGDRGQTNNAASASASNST
# protocol notes: radiometric filter-binding kinase assay
# experimental conditions: compound 0.1 µM
The reader will find reported residual activity values listed item by item below.
Write the answer as a number in %, unit excluded.

Examples from the recorded data:
[
  {
    "compound": "COc1ccc(-n2ncc3cnc(Nc4cc(OC)c(OC)c(OCCCN5CCN(C)CC5)c4)nc32)cc1",
    "numeric readout": 37
  },
  {
    "compound": "COc1ccc2c(c1)c1c3c(c4c5ccccc5n(C)c4c1n2CC(O)CN(C)C)C(=O)NC3=O (centres undefined)",
    "numeric readout": 67
  },
  {
    "compound": "NC(=O)c1cc2c(-c3cccc(-c4ccccc4)c3)cnc(N)c2s1",
    "numeric readout": 68
  }
]

Request the reported residual activity associated with NC1(c2ccc(-c3nc4ccn5c(=O)[nH]nc5c4cc3-c3ccccc3)cc2)CCC1
104

Any idea what its residual activity is? The compound is c1ccc2c(-c3cnn4cc(-c5ccc(N6CCNCC6)cc5)cnc34)ccnc2c1
81

Can you share its residual activity? I mean this compound: C=CC(=O)N1CCC[C@@H](n2nc(-c3ccc(Oc4ccccc4)cc3)c3c(N)ncnc32)C1
104

Value lookup for residual activity; key = CN1CCN(CCOc2cc(OC3CCOCC3)c3c(Nc4c(Cl)ccc5c4OCO5)ncnc3c2)CC1
101

Name the reported residual activity value associated with the compound CNC(=O)C1[C@H]2O[C@@](C)([C@@H]1N)n1c3ccccc3c3c4c(c5c6ccccc6n2c5c31)C(=O)NC4 (some centres undefined)
15

# input compound: O=C(N[C@@H](COc1ccc2[nH]c(=O)[nH]c2c1)c1ccccc1)c1cccn(Cc2ccc(F)c(F)c2)c1=O ; wanted: its residual activity
97

* * *

# System: PRKAA1 or PRKAA2 (rat)
# protocol notes: radiometric filter-binding kinase assay
# experimental conditions: compound 1.0 µM; accession and sequence are those of the human protein
Tag: TRUE if measured residual activity is not below 90%, FALSE if it is.

Study these solved cases before continuing.
[
  {
    "molecule": "O=C1Nc2nc(-c3c(O)cccc3OCC3CC3)cc(C3CCCNC3)c2CO1 (configuration not stated)",
    "assigned label": "FALSE"
  },
  {
    "molecule": "Cc1ccc(-c2ccc3c(ccc4sc5c(c43)NC[C@@H](C)NC5=O)n2)cn1",
    "assigned label": "FALSE"
  },
  {
    "molecule": "CN1C(=O)[C@@H](Cc2c[nH]c3ccccc23)NC1=S",
    "assigned label": "TRUE"
  },
  {
    "molecule": "CC1=C(CO)C(=O)O[C@@H]([C@@H](C)[C@H]2CC[C@H]3[C@@H]4C[C@H]5O[C@]56[C@@H](O)C=CC(=O)[C@]6(C)C4CC[C@]23C)C1 (some centres not stated)",
    "assigned label": "TRUE"
  },
  {
    "molecule": "C=CC(=O)N1CCC[C@@H](n2nc(-c3ccc(Oc4ccccc4)cc3)c3c(N)ncnc32)C1",
    "assigned label": "TRUE"
  },
  {
    "molecule": "NC(=O)c1cc(-c2ccnc(NC3CCCCC3)c2)nc(N2CCNCC2)c1",
    "assigned label": "FALSE"
  },
  {
    "molecule": "Cn1c(=O)c2c(ncn2C)n(C)c1=O",
    "assigned label": "TRUE"
  },
  {
    "molecule": "FC(F)(F)c1ccc(-c2ccc(Oc3cncc4sc(-c5nn[nH]n5)cc34)cc2)cc1",
    "assigned label": "FALSE"
  }
]

residual activity >= 90% for O=C(O)c1ccc(-c2c[nH]c3ncc(-c4ccccc4)cc23)cc1C1CCCC1 ?
FALSE

Does the molecule O=C(NOC[C@H](O)CO)c1ccc(F)c(F)c1Nc1ccc(I)cc1Cl have recorded residual activity that is 90% or more?
TRUE
